Data origin: the supplement of paper PMC10567573

B1: PTPRD (parent)
chain: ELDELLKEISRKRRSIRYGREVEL

Variants of: B1
procedure_text: protein stability index of a GFP-peptide fusion (GPS, HEK-293T) (PSI 1-6); higher = more stable;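 note: lentivirally expressed fusions sorted by FACS into six bins by GFP to DsRed ratio, PSI derived from sequencing read proportions per bin multiplied by bin number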
condition_info: c terminus: a fixed tail appended
property_measured: protein stability index
Give the figure only, with no unit attached.

Dear colleague, I am looking for the recorded protein stability index of the following variant: L6I 1.93

If you can, please state the reported protein stability index value of R13P . 3.3

Quick check: protein stability index of R17I ? 2.46

Tell me the measured protein stability index of D3E , please. 2.51

Field request: protein stability index | item: G19C 2.7

Next:
Reported protein stability index for S15G : what is it? 2.44

Which protein stability index is listed for E21V ? 1.86

Record request: protein stability index value, item K7N 2.16

Item E23P has what recorded protein stability index? 2.56

Find the recorded protein stability index belonging to K12H and report it. 2.03

Item under review: G19D . Reported protein stability index? 2.22

Any idea what its protein stability index is? The variant is E23L 2.85

Reported protein stability index for E8G : what is it? 2.86

Returns the measured protein stability index for the input variant. Input: I16N 2.98

Look up protein stability index: R13T 2.28
